measured.target: NLRP3 (Homo sapiens, UniProt Q96P20)
Construct: Seed THP-1 cells (5.56*10^5 cells/mL) containing 1.0 ug/mL LPS; endogenous in cells; host or cells: THP-1 cells
Sequence (Q96P20 whole entry): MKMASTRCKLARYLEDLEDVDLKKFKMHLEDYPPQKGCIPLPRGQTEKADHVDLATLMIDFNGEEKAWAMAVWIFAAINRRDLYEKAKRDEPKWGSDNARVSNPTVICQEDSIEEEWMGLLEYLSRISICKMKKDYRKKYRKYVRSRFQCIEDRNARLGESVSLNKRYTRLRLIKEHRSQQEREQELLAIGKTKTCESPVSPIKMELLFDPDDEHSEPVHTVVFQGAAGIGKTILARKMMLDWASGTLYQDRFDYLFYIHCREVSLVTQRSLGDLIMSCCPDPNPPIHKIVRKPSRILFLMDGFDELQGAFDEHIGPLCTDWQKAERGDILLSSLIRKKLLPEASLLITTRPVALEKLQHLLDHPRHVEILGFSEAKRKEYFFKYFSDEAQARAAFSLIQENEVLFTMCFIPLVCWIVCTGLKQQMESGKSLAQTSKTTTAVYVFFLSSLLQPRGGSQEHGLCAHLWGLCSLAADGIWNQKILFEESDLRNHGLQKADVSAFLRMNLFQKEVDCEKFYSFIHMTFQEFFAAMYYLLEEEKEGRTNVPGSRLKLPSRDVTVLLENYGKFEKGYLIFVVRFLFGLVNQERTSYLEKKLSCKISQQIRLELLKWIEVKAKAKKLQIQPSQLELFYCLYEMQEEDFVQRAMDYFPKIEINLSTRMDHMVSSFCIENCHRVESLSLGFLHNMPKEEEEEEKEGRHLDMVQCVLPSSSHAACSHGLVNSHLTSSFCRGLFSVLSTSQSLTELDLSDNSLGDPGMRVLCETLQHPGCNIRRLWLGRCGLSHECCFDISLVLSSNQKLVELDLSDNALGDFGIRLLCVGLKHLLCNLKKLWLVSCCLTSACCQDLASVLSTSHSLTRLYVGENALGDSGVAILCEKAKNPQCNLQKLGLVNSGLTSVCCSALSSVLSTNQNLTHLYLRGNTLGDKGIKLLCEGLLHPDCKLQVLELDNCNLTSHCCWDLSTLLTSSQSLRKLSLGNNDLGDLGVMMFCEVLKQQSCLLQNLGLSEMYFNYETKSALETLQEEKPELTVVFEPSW
method.notes: THP-1 LPS/nigericin IL1β release (pyroptosis assay), HTRF
Assay type: cell-based
experimental.setup: NLRP3 inhibitory activity; THP-1 cells, 1.0 ug/mL LPS, compound 3 hrs, nigericin 5 uM 1 hr, IL1β in supernatant
IC50 by entry:
observable: IC50

[
  {
    "compound": "Cc1cc2c(c(NC(=O)NS(=O)(=O)c3cn4c(n3)C(C3CC3)OCC4)c1-c1ccn3nccc3c1)CCC2 (stereo not shown)",
    "measured.result": "≤ 100 nM"
  },
  {
    "compound": "O=C(Nc1c(-c2ccn3nccc3c2)ccc2c1CCC2)NS(=O)(=O)c1cc2n(n1)CCO[C@H]2C1CC1 (single isomer, unassigned)",
    "measured.result": "≤ 100 nM"
  },
  {
    "compound": "O=C(Nc1c(-c2ccn3nccc3c2)ccc2c1CCC2)NS(=O)(=O)c1cc2n(n1)C(C1CC1)COC2 (stereo not shown)",
    "measured.result": "100 to 500 nM"
  },
  {
    "compound": "O=C(Nc1c(-c2ccn3nncc3c2)ccc2c1CCC2)NS(=O)(=O)c1cc2n(n1)CCO[C@@H]2C1CC1 (single isomer, unassigned)",
    "measured.result": "≤ 100 nM"
  }
]
